biological target: hTLR8 (Homo sapiens); test: Human TLR8 Reporter Assay; details: HEK-Blue hTLR8 cells, 16 hours, normalized to tl8-506 (1 μM) and DMSO
Sequence (Q9NR97 27-1041): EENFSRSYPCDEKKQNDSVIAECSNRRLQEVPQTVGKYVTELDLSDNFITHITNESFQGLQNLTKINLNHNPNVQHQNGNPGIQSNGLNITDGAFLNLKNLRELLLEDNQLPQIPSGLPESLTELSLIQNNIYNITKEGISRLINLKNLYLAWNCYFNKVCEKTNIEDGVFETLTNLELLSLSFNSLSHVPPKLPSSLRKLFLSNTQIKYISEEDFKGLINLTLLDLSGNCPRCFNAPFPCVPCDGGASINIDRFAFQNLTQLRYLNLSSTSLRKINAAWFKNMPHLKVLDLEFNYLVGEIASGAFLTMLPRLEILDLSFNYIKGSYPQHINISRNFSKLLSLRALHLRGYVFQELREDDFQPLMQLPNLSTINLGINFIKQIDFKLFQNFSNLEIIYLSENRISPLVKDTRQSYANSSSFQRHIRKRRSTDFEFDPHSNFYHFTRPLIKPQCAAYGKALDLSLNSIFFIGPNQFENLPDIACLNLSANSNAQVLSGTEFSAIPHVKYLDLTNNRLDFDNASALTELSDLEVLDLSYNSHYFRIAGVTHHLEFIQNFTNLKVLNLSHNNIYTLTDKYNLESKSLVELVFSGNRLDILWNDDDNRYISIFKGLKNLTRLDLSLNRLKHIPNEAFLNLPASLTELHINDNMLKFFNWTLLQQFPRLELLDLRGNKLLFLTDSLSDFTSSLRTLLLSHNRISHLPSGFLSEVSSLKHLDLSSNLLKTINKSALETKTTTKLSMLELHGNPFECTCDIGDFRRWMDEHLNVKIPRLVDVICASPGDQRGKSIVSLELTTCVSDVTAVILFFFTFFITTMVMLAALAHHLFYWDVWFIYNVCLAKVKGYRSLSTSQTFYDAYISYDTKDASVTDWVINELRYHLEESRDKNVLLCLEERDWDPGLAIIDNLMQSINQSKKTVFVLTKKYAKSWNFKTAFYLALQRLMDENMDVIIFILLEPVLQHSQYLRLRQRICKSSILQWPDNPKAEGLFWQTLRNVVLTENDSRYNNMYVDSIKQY
Listed here are compounds together with their documented pEC50.
By convention, pEC50 is the negative base-10 log of a molar concentration.

>>> reported_result("CCC[C@@H](CO)Nc1nc(N)nc2cn(Cc3ccccc3OC)nc12")
6.13
>>> reported_result("CCC[C@@H](CO)Nc1nc(N)nc2cn(Cc3ccc(CNC)cc3OC)nc12")
5.19
>>> reported_result("COCCNc1nc(N)nc2cn(Cc3c(OC)cccc3OC)nc12")
5.96
>>> reported_result("CCCCNc1nc(N)nc2cn(Cc3c(OC)cccc3OCCCC(=O)OC)nc12")
5.58
>>> reported_result("CCCCNc1nc(N)nc2cn(Cc3nc(N4CCNCC4)ccc3OC)nc12")
5.02
>>> reported_result("CCCCNc1nc(N)nc2cn(Cc3ccc(C4CCNCC4)nc3OC)nc12")
5.75
>>> reported_result("CCCCNc1nc(N)nc2cn(Cc3ccc(CN4C(=O)C=CC4=O)cc3OC)nc12")
5.69

Could you now consider this next compound?
(Q) Enter reported pEC50 observed with hTLR8 (Homo sapiens) for CCCCNc1nc(N)nc2cn(Cc3c(OC)cc(SC[C@H](N)C(=O)O)cc3OC)nc12
(A) 5.05

* * *

pEC50 listing for selected compounds.
biological target: hTLR8 (Homo sapiens); test: Human TLR8 Reporter Assay; conditions: HEK-Blue hTLR8 cells, 16 hours, normalized to tl8-506 (1 μM) and DMSO
// scale note: pEC50 = -log10(conc_M); give the bare number

>>> reported_result("CCCC(C)Nc1nc(N)nc2cn(Cc3c(OC)cc(CNC)cc3OC)nc12 (stereo not drawn)")
6.77
>>> reported_result("CCCCNc1nc(N)nc2cn(Cc3ccc(C(C)N)cc3OC)nc12 (stereo not drawn)")
6.75
>>> reported_result("CCCCNc1nc(N)nc2cn(Cc3ccccc3)nc12")
5.38

(Q) pEC50 for CCCCNc1nc(N)nc2cn(Cc3ncoc3C)nc12 ?
(A) 5.63

(Q) Which pEC50 value belongs to CCCCNc1nc(N)nc2cn(Cc3ccc(C4CCNC4)cc3OC)nc12 (stereo not drawn) ?
(A) 5.14

(Q) Name the recorded pEC50 for CCCCNc1nc(N)nc2cn(Cc3ccc(CCO)cc3OC)nc12 .
(A) 6.20

(Q) Need pEC50, item CCCCNc1nc(N)nc2cn(Cc3c(OC)cc(CN(C)CCCN)cc3OC)nc12
(A) 6.38

(Q) // pEC50 lookup, key: CCCCNc1nc(N)nc2cn(Cc3ccc(N4CCNCC4)cc3OC)nc12
(A) 6.46

(Q) Return reported pEC50; argument: CCCCNc1nc(N)nc2cn(Cc3ccc(N4CCN(C(=O)C5CCC(CN6C(=O)C=CC6=O)CC5)CC4)cc3OC)nc12 (stereo not drawn)
(A) 5.44

* * *

Biological target: hTLR8 (Homo sapiens)
Test: Human TLR8 Reporter Assay
Details: HEK-Blue hTLR8 cells, 16 hours, normalized to tl8-506 (1 μM) and DMSO
Procedure: HEK-Blue™ hTLR8 cells (Invivogen, San Diego, Calif.) were maintained at 37° C./5% CO2/90% relative humidity in Dulbecco's Modified Eagle's Medium with 10% fetal bovine serum, 100 units/mL penicillin, 100 μg/mL streptomycin, 100 μg/mL normocin, 10 μg/mL blasticidin, and 100 μg/mL zeocin. HEK-Blue™ hTLR8 cells were maintained at 10-90% confluence and used before passage 20. […] Calculated % effects were fit using a 4-parameter algorithm, and EC50 was reported.
Measurement Name: EC50

>>> reported_result("CCCCNc1nc(N)nc2cn(Cc3scnc3C)nc12")
"1500 nM"
>>> reported_result("CCCCNc1nc(N)nc2cn(Cc3ccc(CN)cc3OC)nc12")
"692 nM"
>>> reported_result("CCC[C@@H](CO)Nc1nc(N)nc2cn(Cc3c(OC)cc(CN(C)CCNC(=O)c4cccnc4)cc3OC)nc12")
"1490 nM"
>>> reported_result("CCCCNc1nc(N)nc2cn(Cc3ccc4c(c3)CCC4N)nc12 (stereo not drawn) [Compound 238]")
"1880 nM"

(Q) Reported EC50 for CCCCNc1nc(N)nc2cn(Cc3ccc(CN4CC(CNC)C4)cc3OC)nc12 : what is it?
(A) 6320 nM

(Q) Could you tell me which EC50 is on file for CCCCNc1nc(N)nc2cn(Cc3ccc(C4CCNC4=O)cc3)nc12 (stereo not drawn) [Compound 200] ?
(A) 4900 nM

(Q) GET /values?readout=EC50&item= CCCCNc1nc(N)nc2cn(Cc3ccc(CN4CCNCC4)cc3)nc12
(A) 19900 nM

(Q) # query: EC50 of entry CCC(C)CNc1nc(N)nc2cn(Cc3c(OC)cccc3OC)nc12 (stereo not drawn)
(A) > 9980 nM

(Q) For the molecule CCCCNc1nc(N)nc2cn(Cc3c(OC)cccc3OCCCCC(=O)OC)nc12 , what EC50 is on record?
(A) 2340 nM

* * *

target: hTLR7 (Homo sapiens, UniProt Q9NYK1); test: Human TLR7 Reporter Assay; details: HEK-Blue hTLR7 cells, 16 hours, normalized to CL097 (6 μM) and DMSO
In plain terms, low EC50, meaning strictly below 1000 nM, gives 1, and everything else gives 0.

>>> discrete_label("CCCCNc1nc(N)nc2cn(Cc3c(F)cccc3F)nc12")
1
>>> discrete_label("CCCCC(CCO)Nc1nc(N)nc2cn(Cc3ccccc3OC)nc12 (stereo not drawn) [Compound 17]")
1
>>> discrete_label("CCCCNc1nc(N)nc2cn(Cc3ncc(CN4CCNCC4)cc3OC)nc12")
0
>>> discrete_label("CCCC(C)Nc1nc(N)nc2cn(Cc3c(OC)cc(CNC)cc3OC)nc12 (stereo not drawn)")
1
>>> discrete_label("COc1cccc(OC)c1Cn1cc2nc(N)nc(NCC(C)O)c2n1 (stereo not drawn) [Compound 48]")
0

(Q) Please determine if CCCCNc1nc(N)nc2cn(Cc3ccc(C(C)N(C)CCC)cc3OC)nc12 (stereo not drawn) [Compound 241] is below 1000 nM in terms of EC50.
(A) 1

(Q) Item CCCCNc1nc(N)nc2cn(Cc3cc(C)no3)nc12 : EC50 beneath 1000 nM, strictly?
(A) 1

(Q) Dear reviewer, please state whether CCC[C@@H](CO)Nc1nc(N)nc2cn(Cc3c(OC)cc(CN(C)CCNC(=O)c4cccnc4)cc3OC)nc12 has EC50 strictly beneath 1000 nM.
(A) 0

(Q) Bench note: check whether CCCCNc1nc(N)nc2cn(Cc3cnccc3OC)nc12 shows EC50 below 1000 nM
(A) 1

(Q) Does the reported EC50 of the following molecule sit strictly below 1000 nM? CCCNC(C)c1ccc(Cn2cc3nc(N)nc(N[C@H](CO)CCC)c3n2)c(OC)c1 (stereo partly drawn) [Compound 232]
(A) 1

* * *

The molecules listed here are annotated with their EC50.
Target: hTLR7 (Homo sapiens, UniProt Q9NYK1)
Sequence (Q9NYK1 27-1049): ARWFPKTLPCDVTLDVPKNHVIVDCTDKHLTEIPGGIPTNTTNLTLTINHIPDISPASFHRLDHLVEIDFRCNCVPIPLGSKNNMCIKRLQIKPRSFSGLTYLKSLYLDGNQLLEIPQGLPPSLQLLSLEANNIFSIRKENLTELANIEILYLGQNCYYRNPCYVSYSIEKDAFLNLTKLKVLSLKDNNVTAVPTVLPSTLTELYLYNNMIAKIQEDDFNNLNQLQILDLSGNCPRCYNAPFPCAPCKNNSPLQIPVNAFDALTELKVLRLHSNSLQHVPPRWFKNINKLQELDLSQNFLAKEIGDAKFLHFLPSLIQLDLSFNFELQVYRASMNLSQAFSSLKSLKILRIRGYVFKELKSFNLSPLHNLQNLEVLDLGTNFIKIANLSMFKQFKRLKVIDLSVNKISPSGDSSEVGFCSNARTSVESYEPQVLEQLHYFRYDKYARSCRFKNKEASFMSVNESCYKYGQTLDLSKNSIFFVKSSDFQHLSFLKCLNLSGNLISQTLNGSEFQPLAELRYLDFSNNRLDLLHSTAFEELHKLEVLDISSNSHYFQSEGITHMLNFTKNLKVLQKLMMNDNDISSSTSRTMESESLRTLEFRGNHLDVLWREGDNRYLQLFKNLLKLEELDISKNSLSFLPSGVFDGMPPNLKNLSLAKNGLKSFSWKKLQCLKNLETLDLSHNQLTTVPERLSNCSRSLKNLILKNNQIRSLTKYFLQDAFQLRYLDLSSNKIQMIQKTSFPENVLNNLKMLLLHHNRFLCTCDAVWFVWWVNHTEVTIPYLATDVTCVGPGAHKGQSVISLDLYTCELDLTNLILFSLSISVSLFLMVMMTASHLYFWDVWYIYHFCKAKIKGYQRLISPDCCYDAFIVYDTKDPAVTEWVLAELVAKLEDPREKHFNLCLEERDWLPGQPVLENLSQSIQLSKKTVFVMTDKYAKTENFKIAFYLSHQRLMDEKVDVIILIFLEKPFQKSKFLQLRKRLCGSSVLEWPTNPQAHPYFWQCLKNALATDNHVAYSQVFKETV
Assay: Human TLR7 Reporter Assay
Details: HEK-Blue hTLR7 cells, 16 hours, normalized to CL097 (6 μM) and DMSO
Write your answer as a measured quantity: the number, then the unit.

// worked examples, EC50 included
>>> reported_result("CCCCNc1nc(N)nc2cn(Cc3[nH]cnc3C)nc12")
"5440 nM"
>>> reported_result("CCC[C@@H](CO)Nc1nc(N)nc2cn(Cc3c(OC)cc(CN(C)CCCN)cc3OC)nc12")
"20100 nM"
>>> reported_result("CCCCNc1nc(N)nc2cn(Cc3ccc(CN4CCN(C(=O)CCN5C(=O)C=CC5=O)CC4)cc3)nc12")
"6650 nM"
>>> reported_result("CCCCNc1nc(N)nc2cn(Cc3ncc(N4CCNCC4)cc3OC)nc12")
"633 nM"
>>> reported_result("CCC[C@@H](CO)Nc1nc(N)nc2cn(Cc3c(OC)cc(C(CN)N(C)CCC)cc3OC)nc12 (stereo partly drawn) [Compound 221]")
"5090 nM"

(Q) Quick one: EC50 of CCCCNc1nc(N)nc2cn(Cc3c(OC)cccc3OCCCCO)nc12 ?
(A) 299 nM

(Q) // returns reported EC50 for input CCCCNc1nc(N)nc2cn(Cc3c(OC)cc(CNC)cc3OC)nc12
(A) 91.9 nM

(Q) Reported EC50, molecule CCC[C@H](CO)Nc1nc(N)nc2cn(Cc3c(OC)cccc3OC)nc12 : ____
(A) 213 nM

(Q) Form field: reported EC50 of CCCCNc1nc(N)nc2cn(Cc3ccc(C(C)N)cc3OC)nc12 (stereo not drawn)
(A) 357 nM

(Q) Requested read-out: EC50. Entry: C=CCN(C)Cc1cc(OC)c(Cn2cc3nc(N)nc(NC(C)CCC)c3n2)c(OC)c1 (stereo not drawn)
(A) 21.8 nM

(Q) Give its EC50 value. Item: CCCCNc1nc(N)nc2cn(Cc3ncnn3C)nc12
(A) 1450 nM

(Q) I have this molecule here, CCCCNc1nc(N)nc2cn(Cc3scnc3C)nc12 , and I need its recorded EC50.
(A) 171 nM

(Q) Endpoint output: EC50 of CCCCNc1nc(N)nc2cn(Cc3ccc(CN4CCN(C(=O)C5CCC(CN6C(=O)C=CC6=O)CC5)CC4)cc3OC)nc12 (stereo not drawn) . Value?
(A) 243 nM

(Q) What value of measured EC50 is listed for CCCCNc1nc(N)nc2cn(Cc3ccc(OC)cc3)nc12 ?
(A) 263 nM

(Q) For CCCCNc1nc(N)nc2cn(Cc3c(OC)cc(CN(C)CCCN)cc3OC)nc12 , what is its reported EC50?
(A) 409 nM

(Q) Query (molecule): CCNc1nc(N)nc2cn(Cc3c(OC)cccc3OC)nc12 ; field requested: EC50
(A) 858 nM

(Q) Look up EC50: CCCCNc1nc(N)nc2cn(Cc3ccccc3OC(C)C)nc12
(A) 1030 nM

(Q) // EC50 lookup, key: CCCCNc1nc(N)nc2cn(Cc3cccc(N4CCNCC4)c3OC)nc12
(A) 708 nM
